Target: recombinant human HSP70 (Homo sapiens, UniProt P0DMV8)
Construct: made in house; host or cells: E. coli BL21 (DE3)
Sequence (P0DMV8 whole entry): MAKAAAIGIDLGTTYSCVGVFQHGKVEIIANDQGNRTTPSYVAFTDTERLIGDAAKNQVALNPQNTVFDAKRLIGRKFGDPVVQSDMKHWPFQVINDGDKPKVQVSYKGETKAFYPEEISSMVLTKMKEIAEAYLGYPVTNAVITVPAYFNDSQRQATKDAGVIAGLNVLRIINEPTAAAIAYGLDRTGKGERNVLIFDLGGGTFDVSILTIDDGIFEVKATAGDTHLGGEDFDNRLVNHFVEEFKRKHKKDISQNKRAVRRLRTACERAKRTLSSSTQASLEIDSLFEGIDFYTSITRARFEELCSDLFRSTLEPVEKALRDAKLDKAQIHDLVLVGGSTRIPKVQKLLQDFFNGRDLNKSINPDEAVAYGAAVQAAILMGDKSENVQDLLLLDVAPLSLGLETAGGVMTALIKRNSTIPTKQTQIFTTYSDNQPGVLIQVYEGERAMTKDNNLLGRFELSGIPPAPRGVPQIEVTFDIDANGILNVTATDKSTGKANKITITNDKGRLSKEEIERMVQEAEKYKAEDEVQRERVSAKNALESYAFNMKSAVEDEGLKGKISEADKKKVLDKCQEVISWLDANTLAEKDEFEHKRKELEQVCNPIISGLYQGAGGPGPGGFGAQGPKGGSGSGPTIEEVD
Assay: HSP70 ATPase catalytic activity, Malachite green assay
Format: biochemical
Conditions: 300 μM final concentration; read-out: percentage of inhibition of HSP70 ATPase activity
Measurement Label: inhibition at 300 µM (%)

As a guide, the following entries are already answered.
[[record]]
compound_structure = "CSc1cccc(Nc2nc(-c3ccc4[nH]c(=O)sc4c3)cs2)c1"
quantitative_readout = 19

[[record]]
compound_structure = "CCc1ccc(Nc2nc(-c3ccc(Cl)cc3)cs2)cc1SC"
quantitative_readout = 40

[[record]]
compound_structure = "CSc1cccc(Nc2nc(-c3cccc(Cl)c3)cs2)c1"
quantitative_readout = 44

[[record]]
compound_structure = "O=C1Cc2cc(-c3csc(Nc4cccc(SC(F)(F)F)c4)n3)ccc2N1"
quantitative_readout = 37

[[record]]
compound_structure = "CSc1cccc(Nc2nc(-c3nc4ccccc4s3)cs2)c1"
quantitative_readout = 49


P: CCn1c(=O)/c(=C2\Sc3ccccc3N2C)s/c1=C\c1ccccn1
Q: CSc1cccc(Nc2nc(-c3ccc4c(c3)CC(=O)N4)cs2)c1
Data request: Sorting ascending by inhibition at 300 µM, which comes first: P or Q ? // respond with label for picked entry
Data returned: Q

----------
Target: recombinant SIRT2 (Homo sapiens, UniProt Q8IXJ6)
Sequence (Q8IXJ6 whole entry): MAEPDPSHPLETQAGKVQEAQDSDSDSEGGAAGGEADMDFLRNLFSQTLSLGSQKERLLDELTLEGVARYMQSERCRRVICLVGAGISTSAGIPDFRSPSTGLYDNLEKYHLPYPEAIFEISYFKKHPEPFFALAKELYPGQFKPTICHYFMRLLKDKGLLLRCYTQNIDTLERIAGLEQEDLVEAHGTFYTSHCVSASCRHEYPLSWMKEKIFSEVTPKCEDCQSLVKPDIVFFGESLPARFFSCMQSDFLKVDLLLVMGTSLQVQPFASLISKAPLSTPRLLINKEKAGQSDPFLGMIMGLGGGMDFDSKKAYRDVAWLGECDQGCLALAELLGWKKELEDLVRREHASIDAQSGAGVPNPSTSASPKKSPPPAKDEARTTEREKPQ
Assay: SIRT2 deacetylase activity, recombinant SIRT2 incubated with acetylated peptide H3K9Ac and NAD+
Format: biochemical
Settings: 150 μM; recombinant protein
Measurement Label: inhibition at 150 µM (%)

[[record]]
molecule = "CSc1cccc(Nc2nc(-c3nc4ccccc4s3)cs2)c1 [Compound 1a]"
system_name = "recombinant SIRT2 (Homo sapiens, UniProt Q8IXJ6)"
quantitative_readout = 72

[[record]]
molecule = "CSc1cccc(Nc2nc(-c3cccc(Cl)c3)cs2)c1 [Compound 3a]"
system_name = "recombinant SIRT2 (Homo sapiens, UniProt Q8IXJ6)"
quantitative_readout = 60

[[record]]
molecule = "CSc1cccc(Nc2nc(-c3ccc4[nH]c(=O)sc4c3)cs2)c1 [Compound 5a]"
system_name = "recombinant SIRT2 (Homo sapiens, UniProt Q8IXJ6)"
quantitative_readout = 76


----------
Target: recombinant SIRT2 (Homo sapiens, UniProt Q8IXJ6)
Assay: SIRT2 deacetylase activity, recombinant SIRT2 incubated with acetylated peptide H3K9Ac and NAD+
Details: recombinant protein
pIC50: −log10 of the molar value.
Measurement Label: pIC50

[[record]]
molecule = "CSc1cccc(Nc2nc(-c3nc4ccccc4s3)cs2)c1 [Compound 1a]"
system_name = "recombinant SIRT2 (Homo sapiens, UniProt Q8IXJ6)"
quantitative_readout = 4.35

[[record]]
molecule = "CCn1c(=O)/c(=C2\\Sc3ccccc3N2C)s/c1=C\\c1ccccn1 [Compound 7a, YM-08]"
system_name = "recombinant SIRT2 (Homo sapiens, UniProt Q8IXJ6)"
quantitative_readout = 4.70


a: O=C1Cc2cc(-c3csc(Nc4cccc(SC(F)(F)F)c4)n3)ccc2N1 [Compound 6a]
b: CCc1ccc(Nc2nc(-c3ccc(Cl)cc3)cs2)cc1SC [Compound 2a]
Data request: Of a and b , whose reported pIC50 is the larger number? // respond with label for picked entry
Data returned: b

----------
Biological target: recombinant SIRT2 (Homo sapiens)
Assay: SIRT2 deacetylase activity, recombinant SIRT2 incubated with acetylated peptide H3K9Ac and NAD+
Format: biochemical
Conditions: 150 μM; recombinant protein
Measurement Label: inhibition at 150 µM (%)

P: CSc1cccc(Nc2nc(-c3ccc4c(c3)CC(=O)N4)cs2)c1 [Compound 4a]
Q: Cc1cc(C)nc(SCC(=O)Nc2ncc(Cc3cccc4ccccc34)s2)n1 [Compound 10, SirReal2]
Data request: Sorting ascending by inhibition at 150 µM, which comes first: P or Q ? // respond with label for picked entry
Data returned: P
(P: 60%, Q: 100%)

These entries and their values trace back to paper PMC10535842.
